# system: HLA-A*02:02
# procedure_text: IEDB peptide-MHC binding, purified MHC/competitive/radioactivity; filed as Kd, often an IC50 or EC50 that approximates it; bounds were set here for any values at or beyond the usual limits of such assays
# assay_setup: source organism: Mammarenavirus guanaritoense
experimental_endpoint: Kd (nM)

[[record]]
primary_sequence = "TLVDLCFWS"
experimental_endpoint = "Kd"
display_unit = "nM"
observed_measurement = 57.9


----------
As shown below, each of these sequences has a reported Kd value.
# system: HLA-B*45:06
# procedure_text: IEDB peptide-MHC binding, purified MHC/competitive/fluorescence; filed as Kd, often an IC50 or EC50 that approximates it; bounds were set here for any values at or beyond the usual limits of such assays
# assay_setup: source organism: Mycobacterium tuberculosis variant bovis BCG str. Pasteur 1173P2
experimental_endpoint: Kd

[[record]]
primary_sequence = "AEFGPWQTV"
experimental_endpoint = "Kd"
observed_measurement = "≥ 5 µM"

[[record]]
primary_sequence = "FMFDYIPPV"
experimental_endpoint = "Kd"
observed_measurement = "≥ 5 µM"

